Hey, just so you know, these numbers are from PubChem BioAssay (Tox21).

- protocol: A CellTox Green Cytotoxicity Assay to monitor cytotoxicity in HEK293 cells - 32 hour (AID 1224881); further: on the % scale 0 is the no-effect control and ±100 the full control effect; nearly all actives have a fitted effect of over 40% in size
- conditionLabel: CellTox Green fluorescence; series mostly up to 76.8 µM
Records with an inconclusive call do not appear. The source made the active and inactive calls. The call rests on the fitted dose curve; in most records, active means well fitted activation curve with a large enough effect in the repeat runs; inconclusive means weak or mixed curves; inactive means flat fitted curve, though single readings scatter.
recordedEndpoint: cytotoxicity increase

compound: Cc1nc2n(c(=O)c1CCN1CCC(C(=O)c3ccc(F)cc3)CC1)CCS2
observed: inactive
--
compound: CCC(C)(CCC(C)C)C(=O)[O-].CCC(C)(CCC(C)C)C(=O)[O-].[Zn+2] (stereo not drawn)
observed: inactive
--
compound: C=CCCCCCCCCCCC
observed: -0.213% [at 6.97 µM] (inactive)
--
compound: COc1cc([N+](=O)[O-])ccc1N
observed: inactive
--
compound: CC(=O)OC(C)(C)Cc1ccccc1
observed: inactive

With those in mind, consider the next compound.
Exercise: Given the compound `CCCCC/C=C/CC(=O)OC` , write its reported cytotoxicity increase.
Solution: inactive

----------
- protocol: qHTS assay to identify small molecule agonists of the sonic hedgehog signaling (Shh) pathway - cell viability counter screen (AID 1259366); further: on the % scale 0 is the no-effect control and ±100 the full control effect; nearly all actives have a fitted effect of over 50% in size
- conditionLabel: NIH/3T3 Gli1-Luc viability, CellTiter-Fluor, 24 h; series mostly up to 92.4 µM
Records with an inconclusive call do not appear. Activity calls are given as the source filed them. The call rests on the fitted dose curve; in most records, active means well fitted cell-killing curve with a large enough effect in the repeat runs; inconclusive means weak or mixed curves, or effect the other way; inactive means flat fitted curve, though single readings scatter.
recordedEndpoint: viability change, negative = cytotoxic

Worked set:
compound: Cc1ccccc1OCC1CO1 (stereo not given)
observed: inactive
//
compound: CC(C)COC(=O)CCCCC(=O)OCC(C)C
observed: inactive
//
compound: FC(F)(F)c1ccc(Cl)cc1Cl
observed: inactive
//
compound: CCN1CN(CC)CN(CC)C1
observed: inactive
//
compound: O=C1NC2NC(=O)NC2N1 (stereo not given)
observed: inactive
//
compound: CCOC(=O)C(=O)c1csc(NC=O)n1
observed: inactive

Exercise: Given the compound `OC(CCN1CCCCC1)(c1ccccc1)c1ccccc1` , write its reported viability change, negative = cytotoxic.
Solution: inactive

Exercise: Given the compound `CC(=O)OC(C)(C)Cc1ccccc1` , write its reported viability change, negative = cytotoxic.
Solution: inactive

Exercise: Given the compound `CCCCCC(=O)OCC` , write its reported viability change, negative = cytotoxic.
Solution: inactive

----------
- measurementTarget: Aryl hydrocarbon receptor (Homo sapiens)
- protocol: qHTS assay to identify small molecule that activate the aryl hydrocarbon receptor (AhR) signaling pathway (AID 743085); further: nearly all actives have a fitted effect of over 15% in size;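 on activation: HG2L7.5c1 human HepG2 liver cells with stably integrated DRE-driven firefly reporter; on the % scale 0 is the no-effect control and ±100 the full control effect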
- conditionLabel: HepG2 AhR-luc (HG2L7.5c1), luciferase, 24 h; series mostly up to 70.3 µM
Records with an inconclusive call do not appear. Active and inactive are the calls of the source. The call rests on the fitted dose curve; in most records, active means well fitted activation curve with a large enough effect in the repeat runs; inconclusive means weak or mixed curves; inactive means no such curve, though single readings can be large or run the other way.
Please answer using one outcome listed in 1 (yes) = active, 0 (no) = inactive

molecule: CCCCCCCCCCC
label: 0 (no)
--
molecule: OC(CCN1CCCCC1)(c1ccccc1)c1ccccc1
label: 1 (yes)

Exercise: What was the test verdict on `CCCO` ?
Solution: 0 (no)

Exercise: What was the test verdict on `CCOC(=O)CC(CC(=O)OCC)(OC(C)=O)C(=O)OCC` ?
Solution: 0 (no)

----------
- protocol: qHTS RealTime-Glo MT Cell Viability Assay in HepG2 cells - 16 hour (AID 1224885); further: on the % scale 0 is the no-effect control and ±100 the full control effect; nearly all actives have a fitted effect of over 50% in size
- conditionLabel: RealTime-Glo luminescence; series mostly up to 76.8 µM
Results filed as inconclusive are left out. Calls of active or inactive are those of the source. Calls follow the shape of the dose curve; as a rule, active = well fitted cell-killing curve with a large enough effect in the repeat runs; inconclusive = weak or mixed curves; inactive = flat fitted curve, though single readings scatter.
recordedEndpoint: activity change, negative = cytotoxic

compound: CCC(C)N (configuration not stated)
activity change, negative = cytotoxic: inactive
--
compound: O=S(=O)(O)SSS(=O)(=O)O
activity change, negative = cytotoxic: inactive
--
compound: C=CCOc1cc(Cl)ccc1C(=O)NCCN(CC)CC
activity change, negative = cytotoxic: inactive
--
compound: CCOC(=O)CCCCCCCCC(=O)OCC
activity change, negative = cytotoxic: inactive
--
compound: C=C(C)C(=O)OCCCCCCOC(=O)C(=C)C
activity change, negative = cytotoxic: inactive
--
compound: COC(OC)C(C)c1ccccc1 (configuration not stated)
activity change, negative = cytotoxic: inactive

With those in mind, consider the next compound.
Exercise: Given the compound `Nc1nc(=O)n([C@@H]2O[C@H](CO)[C@@H](O)[C@@H]2F)cc1I` , write its reported activity change, negative = cytotoxic.
Solution: inactive
